Below: a set of entries, each annotated with reported OD450.
Target: Peptide 5: Biotin-…-[Tyr(PC)]-acid
Sequence (peptide, as listed by the source): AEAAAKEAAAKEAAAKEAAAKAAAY
Test: scFv ELISA
Entry rule: numbers only, all in OD450.

binder	experimental-value
PcOxP_DB03_B06 (scFv, V domains shown, scFv in periplasmic extract) VH: EVQLLESGGGLVQPGGSLRLSCAASGITFSDFYMEWVRQAPGKGLEWVAASRNKYNDYTTEYADSVKGRFTISRDNSKNTLYLQMNSLRAEDTAVYYCARDYYGSSYWYFDVWGQGTLVTVSS VL: DIVMTQSPDSLAVSLGERATINCTASESLYSSKHKVHYLAWYQQKPGQPPKLLIYGASNRYTGVPDRFSGSGSGTDFTLTISSLQAEDVAVYYCAQFYSYPLTFGGGTKVEIK	1.01
PcOxP_DB03_C10 (scFv, V domains shown, scFv in periplasmic extract) VH: EVQLLESGGGLVQPGGSLRLSCAASGFTFSSYYMEWVRQAPGKGLEWVAASRNKANEYTTEYADSVKGRFTISRDNSKNTLYLQMNSLRAEDTAVYYCARDYYGSSYWYFDVWGQGTLVTVSS VL: DIVMTQSPDSLAVSLGERATINCTASESLYSSKHKVHYLAWYQQKPGQPPKLLIYGAGNRYIGVPDRFSGSGSGTDFTLTISSLQAEDVAVYYCAQFYSYPLTFGGGTKVEIK	1.1
PcOxP_DB02_C08 (scFv, V domains shown, scFv in periplasmic extract) VH: EVQLLESGGGLVQPGGSLRLSCAASGFTFSDPYMEWVRQAPGKGLEWVAASRNKANDYTTEYADSVKGRFTISRDNSKNTLYLQMNSLRAEDTAVYYCARDYYGSPYWYFDVWGQGTLVTVSS VL: DIVMTQSPDSLAVSLGERATINCGASESLYSSKSKVHYLAWYQQKPGQPPKLLIYGASNRYIGVPDRFSGSGSGTDFTLTISSLQAEDVAVYYCAQFYSYPLTFGGGTKVEIK	0.39
PcOxP_DB02_E02 (scFv, V domains shown, scFv in periplasmic extract) VH: EVQLLESGGGLVQPGGSLRLSCAASGFTFSDEYMEWVRQAPGKGLEWVAASRNSGNSYTTAYADSVKGRFTISRDNSKNTLYLQMNSLRAEDTAVYYCARDYYGSSYWYFDVWGQGTLVTVSS VL: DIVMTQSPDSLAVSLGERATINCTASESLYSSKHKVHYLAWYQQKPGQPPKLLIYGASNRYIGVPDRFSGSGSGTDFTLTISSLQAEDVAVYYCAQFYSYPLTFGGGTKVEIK	0.34

Now turn to the next binder.
Notebook: PcOxP_DB01_G09 (scFv, V domains shown, scFv in periplasmic extract) VH: EVQLLESGGGLVQPGGSLRLSCAASGFTFSDYYMEWVRQAPGKGLEWVAASRNKANTYTTEYADSVKGRFTISRDNSKNTLYLQMNSLRAEDTAVYYCARDYYGSSYWYFDVWGQGTLVTVSS VL: DIQMTQSPSSLSASVGDRVTITCTASESLYSSKHKVHYLAWYQQKPGKAPKLLIYGASNLYSGVPSRFSGSGSGTDFTLTISSLQPEDFATYYCAQFYSYPLTFGGGTKVEIK , OD450 read as 1.4
